B1: Tetratricopeptide repeat protein 4 (Homo sapiens), O95801 (parent)
chain: MEQPGQDPTSDDVMDSFLEKFQSQPYRGGFHEDQWEKEFEKVPLFMSRAPSEIDPRENPDLACLQSIIFDEERSPEEQAKTYKDEGNDYFKEKDYKKAVISYTEGLKKKCADPDLNAVLYTNRAAAQYYLGNFRSALNDVTAARKLKPCHLKAIIRGALCHLELKHFAEAVNWCDEGLQIDAKEKKLLEMRAKADKLKRIEQRDVRKANLKEKKERNQNEALLQAIKARNIRLSEAACEDEDSASEGLGELFLDGLSTENPHGARLSLDGQGRLSWPVLFLYPEYAQSDFISAFHEDSRFIDHLMVMFGETPSWDLEQKYCPDNLEVYFEDEDRAELYRVPAKSTLLQVLQHQRYFVKALTPAFLVCVGSSPFCKNFLRGRKVYQIR

# Variants of: B1
# Recorded Conditions: with hs90b_human HSP90AB1, P08238
# Sequence (P08238 whole entry): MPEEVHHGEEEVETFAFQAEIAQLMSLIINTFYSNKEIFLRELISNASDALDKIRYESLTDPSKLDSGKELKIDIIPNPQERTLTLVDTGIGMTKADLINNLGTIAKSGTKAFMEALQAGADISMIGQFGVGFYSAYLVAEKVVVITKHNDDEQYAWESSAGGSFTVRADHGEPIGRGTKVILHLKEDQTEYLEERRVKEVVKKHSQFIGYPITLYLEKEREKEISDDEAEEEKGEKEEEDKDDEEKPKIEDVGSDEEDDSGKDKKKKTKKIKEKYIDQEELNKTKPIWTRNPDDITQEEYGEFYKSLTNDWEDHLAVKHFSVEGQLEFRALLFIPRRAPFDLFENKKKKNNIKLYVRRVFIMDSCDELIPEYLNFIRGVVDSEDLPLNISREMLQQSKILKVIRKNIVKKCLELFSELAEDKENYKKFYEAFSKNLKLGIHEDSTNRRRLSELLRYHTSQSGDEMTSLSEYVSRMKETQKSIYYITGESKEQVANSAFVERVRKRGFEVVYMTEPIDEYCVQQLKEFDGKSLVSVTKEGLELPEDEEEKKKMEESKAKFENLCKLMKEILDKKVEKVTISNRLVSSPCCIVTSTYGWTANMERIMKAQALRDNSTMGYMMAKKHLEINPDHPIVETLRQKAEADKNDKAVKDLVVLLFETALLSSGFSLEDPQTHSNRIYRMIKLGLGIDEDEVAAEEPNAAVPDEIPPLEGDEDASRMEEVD
Measured Metric: effect of a mutation on the interaction

1. V42D
with no effect
2. I67M
with no effect
